Data origin, for the record: patent US20170049843A1

Assay: Blood stability studies
Type: in vitro ADME, rat
Details: rat, heparinized whole blood, heparinized rat blood, 37° C., single phase exponential decay; read-out: stability t1/2 in blood

| molecule | half-life |
| --- | --- |
| CCCC[C@H](N)C(=O)N[C@@H](Cc1ccc(O)cc1)C(=O)N[C@H](CN[C@@H](Cc1c[nH]cn1)C(=O)N1CCC[C@H]1C(=O)N[C@@H](Cc1ccccc1)C(=O)O)CC(C)C [Norleual, Nle-Tyr-Leu-Ψ-(CH2—NH2)^3-4-His-Pro-Phe, reference compound] | < 5 min |

----------
Test: in vivo
Settings: male, Sprague-Dawley, rat, iv, 24 mg/kg
Where a SMILES comes first, the peptide text is derived from it. [ ]: non-standard residue; d: D form. dNle = CCCC[C@@H](N)C(=O)O; Ahx = NCCCCCC(=O)O

| compound | C0, µg/mL |
| --- | --- |
| CCCC[C@@H](N)C(=O)N[C@@H](Cc1ccc(O)cc1)C(=O)N[C@H](C(=O)NCCCCCC(N)=O)[C@@H](C)CC (H-[dNle]YI[Ahx]-NH2) | 68.2 |
